- assay.summary: pKa determination by titration
- Assay type: physicochemical
- test.conditions: read-out: pKa1
Where a name gives a salt, the structure may show the parent alone.
observation.type: pKa

compound	observation.type	meas.value
CC(C)(C(=O)N[C@@H](Cc1ccccc1)C(=O)O)C(=O)N[C@@H](Cc1ccccc1)C(=O)O	pKa	3.55
O=C(O)[C@H](Cc1ccccc1)NC(=O)C1(C(=O)N[C@@H](Cc2ccccc2)C(=O)O)CC1	pKa	3.53
O=C(/C=C\C(=O)N[C@@H](Cc1ccccc1)C(=O)O)N[C@@H](Cc1ccccc1)C(=O)O [Example 15, bis(Nα-amido-L-phenylalanine) maleate]	pKa	3.7
O=C(CC(=O)N[C@@H](Cc1ccccc1)C(=O)O)N[C@@H](Cc1ccccc1)C(=O)O [Example 4, bis(Nα-amido-L-phenylalanine) malonate]	pKa	3.67

---

- assay.summary: pKa determination by titration
- Format: physicochemical
- test.conditions: read-out: pKa2
Structures can show the parent of a compound that is named as a salt.
observation.type: pKa

compound	pKa
O=C(/C=C\C(=O)N[C@@H](Cc1ccccc1)C(=O)O)N[C@@H](Cc1ccccc1)C(=O)O [Example 15, bis(Nα-amido-L-phenylalanine) maleate]	4.87
CC(C)(C(=O)N[C@@H](Cc1ccccc1)C(=O)O)C(=O)N[C@@H](Cc1ccccc1)C(=O)O	4.62
O=C(CC(=O)N[C@@H](Cc1ccccc1)C(=O)O)N[C@@H](Cc1ccccc1)C(=O)O [Example 4, bis(Nα-amido-L-phenylalanine) malonate]	4.7
O=C(O)[C@H](Cc1ccccc1)NC(=O)C1(C(=O)N[C@@H](Cc2ccccc2)C(=O)O)CC1	4.5

Where these numbers come from: patent US5820881A
